Values compiled from ChEMBL document CHEMBL1201862.

- System: NCI-H460
- Method: NCI tumour cell line growth inhibition, 48 h
Active and inactive are the calls of the source. No stated cut-off is given here; in the data, active = GI50 up to about 1.1 µM and inactive = higher.
Possible outcomes: class 1 for active, class 0 for inactive

• C=CCNC(=O)C(C)C1CCC2(C)C=CC(=O)C(C)=C2C1O (stereo unspecified) = class 0
• NCCNCCCCCCNC(=O)c1cccc2cc3ccccc3nc12 = class 1
• CC1CC(C)(C)CC(OCCN2CCCCC2)(c2ccccc2)C1 (stereo unspecified) = class 0
• CC(=O)Nc1ccc(-c2nnc(SCC(=O)Nc3ccccc3)o2)cc1 = class 0
• COc1ccc(CN2C(=O)C(Cc3cc(OC)c(OC)c(C)c3OC)NC(=O)/C2=C/c2cc(OC)c(OC)c(C)c2OC)cc1 (stereo unspecified) = class 0
• COc1ccc(/C=N/Nc2nc3ccccc3c(=O)n2-c2ccccc2)cc1 = class 0
• CCCCN1C=CN2c3nc4cc(C)c(C)cc4n3C(C(=O)OC)=C(C(=O)OC)C12 (stereo unspecified) = class 0
• COc1ccccc1C1C2=C(COC2=O)Oc2cc3c(cc21)OCO3 (stereo unspecified) = class 0
• CCOC(=O)c1c(Br)c(-c2ccc([N+](=O)[O-])cc2)c(Br)n1C = class 0
• OC1COC(OCc2ccccc2)C(O)C1O (stereo unspecified) = class 0
• CCOc1ccc(NC2=CC(=O)C(=O)c3ccccc32)cc1 = class 0
